run description: Oral bioavailability in cynomolgus monkey at 2 mg/kg
Type: ADME, organism-based, Macaca fascicularis
test settings: in vivo
readout type: bioavailability (%)
Give the value, in units of %, as a plain number.

// bioavailability lookup, molecule = `Nc1cc(C(F)(F)F)c(-c2cc(N3CCOCC3)nc(N3CCOCC3)n2)cn1` , result: 44

----------
run description: Clearance in rat at 5 mg/kg, iv
Assay type: ADME, organism-based
Set-up: dose 5 mg/kg, route intravenous
test settings: in vivo
Task for the reader: assign each of the following compounds its reported clearance.
Give the value, in units of mL/min/kg, as a plain number.

// clearance lookup, compound = `Nc1cc(Cl)c(-c2cc(N3CCOCC3)nc(N3CCOCC3)n2)cn1` , result: 22

// clearance lookup, compound = `Nc1cc(C(F)(F)F)c(-c2cc(N3CCOCC3)nc(N3CCOCC3)n2)cn1` , result: 3

// clearance lookup, compound = `Nc1ncc(-c2cc(Nc3cnc4ccccc4c3)nc(N3CCOCC3)n2)c(C(F)(F)F)n1` , result: 11

// clearance lookup, compound = `Nc1cc(C(F)(F)F)c(-c2cc(Nc3cnc4ccccc4c3)nc(N3CCOCC3)n2)cn1` , result: 8

// clearance lookup, compound = `Nc1ncc(-c2cc(N3CCOCC3)nc(N3CCOCC3)n2)c(C(F)(F)F)n1` , result: 11

// clearance lookup, compound = `Nc1ncc(-c2cc(N3CCOCC3)nc(N3CCOCC3)n2)c(=O)[nH]1` , result: 24

// clearance lookup, compound = `Nc1ncc(-c2cc(N3CCOCC3)nc(N3CCOCC3)n2)c(N)n1` , result: 9

// clearance lookup, compound = `N#Cc1cc(N)ncc1-c1cc(N2CCOCC2)nc(N2CCOCC2)n1` , result: 11

----------
run description: Oral bioavailability in beagle dog at 2 mg/kg
Assay type: ADME, organism-based, Canis lupus familiaris
test settings: in vivo
readout type: bioavailability

// bioavailability lookup, compound = `Nc1cc(C(F)(F)F)c(-c2cc(N3CCOCC3)nc(N3CCOCC3)n2)cn1` , result: > 100%

----------
run description: Half life in CD rat at 5 mg/kg, iv
Format: ADME, organism-based
Set-up: dose 5 mg/kg, route intravenous
test settings: in vivo
readout type: half-life (h)
Give the value, in units of h, as a plain number.

// half-life lookup, compound = `Nc1cc(C(F)(F)F)c(-c2cc(N3CCOCC3)nc(N3CCOCC3)n2)cn1` , result: 11

----------
run description: Aqueous solubility of the compound
Assay type: physicochemical
readout type: solubility (µg/mL)
Give the value, in units of µg/mL, as a plain number.

// solubility lookup, molecule = `Nc1cc(C(F)(F)F)c(-c2cc(Nc3cnc4ccccc4c3)nc(N3CCOCC3)n2)cn1` , result: 0.3

----------
Task for the reader: assign each of the following compounds its reported solubility.
run description: Solubility of the compound at pH 7
Format: physicochemical
test settings: buffer
Give the value, in units of µM, as a plain number.

// solubility lookup, compound = `Nc1ncc(-c2cc(N3CCOCC3)nc(N3CCOCC3)n2)c(C(F)(F)F)n1` , result: 61

// solubility lookup, compound = `Nc1ncc(-c2cc(N3CCOCC3)nc(N3CCOCC3)n2)c(=O)[nH]1` , result: 22

// solubility lookup, compound = `Nc1ncc(-c2cc(N3CCOCC3)nc(N3CCOCC3)n2)c(N)n1` , result: 8

// solubility lookup, compound = `Nc1cc(C(F)(F)F)c(-c2cc(N3CCOCC3)nc(N3CCOCC3)n2)cn1` , result: 132

// solubility lookup, compound = `N#Cc1cc(N)ncc1-c1cc(N2CCOCC2)nc(N2CCOCC2)n1` , result: 11

// solubility lookup, compound = `Nc1ncc(-c2cc(N3CCOCC3)nc(N3CCOCC3)n2)cn1` , result: 25

// solubility lookup, compound = `Nc1cc(Cl)c(-c2cc(N3CCOCC3)nc(N3CCOCC3)n2)cn1` , result: 45

----------
run description: AUC in rat at 20 mg/kg, po
Format: ADME, organism-based
Parameters: dose 20 mg/kg, route oral
test settings: plasma
# cutoff 30 µM·h applies to AUC; >= gives condition met, < gives condition not met

IN: Could you tell me if the measured AUC of `N#Cc1cc(N)ncc1-c1cc(N2CCOCC2)nc(N2CCOCC2)n1` reaches 30 µM·h or more?
OUT: condition met

IN: Could you tell me if the measured AUC of `Nc1ncc(-c2cc(Nc3cnc4ccccc4c3)nc(N3CCOCC3)n2)c(C(F)(F)F)n1` reaches 30 µM·h or more?
OUT: condition not met

IN: Could you tell me if the measured AUC of `Nc1ncc(-c2cc(N3CCOCC3)nc(N3CCOCC3)n2)c(=O)[nH]1` reaches 30 µM·h or more?
OUT: condition not met

IN: Could you tell me if the measured AUC of `Nc1cc(Cl)c(-c2cc(N3CCOCC3)nc(N3CCOCC3)n2)cn1` reaches 30 µM·h or more?
OUT: condition not met

IN: Could you tell me if the measured AUC of `Nc1ncc(-c2cc(Nc3cnc4ccccc4c3)nc(N3CCOCC3)n2)cn1` reaches 30 µM·h or more?
OUT: condition not met

IN: Could you tell me if the measured AUC of `Nc1ncc(-c2cc(N3CCOCC3)nc(N3CCOCC3)n2)c(C(F)(F)F)n1` reaches 30 µM·h or more?
OUT: condition met

IN: Could you tell me if the measured AUC of `Nc1cc(C(F)(F)F)c(-c2cc(Nc3cnc4ccccc4c3)nc(N3CCOCC3)n2)cn1` reaches 30 µM·h or more?
OUT: condition met

IN: Could you tell me if the measured AUC of `Nc1cc(C(F)(F)F)c(-c2cc(N3CCOCC3)nc(N3CCOCC3)n2)cn1` reaches 30 µM·h or more?
OUT: condition met

----------
run description: Drug uptake in tumor in nu/nu mouse xenografted with human A2780 cells at 60 mg/kg, po
Format: ADME, organism-based, Neoplasm
Parameters: dose 60 mg/kg, route oral
test settings: in vivo, read-out: Drug uptake
readout type: concentration
Quick note: number first, unit second.

// concentration lookup, compound = `Nc1cc(C(F)(F)F)c(-c2cc(N3CCOCC3)nc(N3CCOCC3)n2)cn1` , result: 2000 nM

----------
run description: Apparent permeability from apical to basal side of human Caco2 cells
Format: ADME, cell-based
test settings: Caco-2
readout type: Papp A→B (×10⁻⁶ cm/s)
Give the value, in units of ×10⁻⁶ cm/s, as a plain number.

// Papp A→B lookup, compound = `Nc1cc(C(F)(F)F)c(-c2cc(Nc3cnc4ccccc4c3)nc(N3CCOCC3)n2)cn1` , result: 1.56

----------
run description: Half life in cynomolgus monkey at 1 mg/kg, iv
Format: ADME, organism-based, Macaca fascicularis
Parameters: dose 1 mg/kg, route intravenous
test settings: in vivo
readout type: half-life (h)
Give the value, in units of h, as a plain number.

// half-life lookup, compound = Nc1cc(C(F)(F)F)c(-c2cc(N3CCOCC3)nc(N3CCOCC3)n2)cn1 [BUPARLISIB] , result: 3.6

----------
Tested on: Plasma
run description: Plasma concentration in nu/nu mouse xenografted with human A2780 cells at 60 mg/kg, po
Format: ADME, organism-based
Design: dose 60 mg/kg, route oral
test settings: in vivo
readout type: concentration (nM)
Give the value, in units of nM, as a plain number.

// concentration lookup, compound = Nc1cc(C(F)(F)F)c(-c2cc(N3CCOCC3)nc(N3CCOCC3)n2)cn1 [BUPARLISIB] , result: 2000

----------
run description: Oral bioavailability in CD1 mouse at 10 mg/kg
Type: ADME, organism-based
test settings: in vivo
readout type: bioavailability (%)
Give the value, in units of %, as a plain number.

// bioavailability lookup, compound = `Nc1cc(C(F)(F)F)c(-c2cc(N3CCOCC3)nc(N3CCOCC3)n2)cn1` , result: 71

----------
run description: Lipophilicity, log D at pH 7.4
Assay type: physicochemical
test settings: buffer
readout type: logD
// print number alone

// logD lookup, molecule = Nc1cc(C(F)(F)F)c(-c2cc(N3CCOCC3)nc(N3CCOCC3)n2)cn1 [BUPARLISIB] , result: 2.9

----------
run description: Clearance in beagle dog at 1 mg/kg, iv
Type: ADME, organism-based, Canis lupus familiaris
Parameters: dose 1 mg/kg, route intravenous
test settings: in vivo
readout type: clearance (mL/min/kg)
Give the value, in units of mL/min/kg, as a plain number.

// clearance lookup, molecule = Nc1cc(C(F)(F)F)c(-c2cc(N3CCOCC3)nc(N3CCOCC3)n2)cn1 [BUPARLISIB] , result: 7.3

----------
System: Plasma
run description: Plasma concentration in nu/nu mouse xenografted with human A2780 cells at 100 mg/kg, po
Type: ADME, organism-based
Design: dose 100 mg/kg, route oral
test settings: in vivo
readout type: concentration (nM)
Give the value, in units of nM, as a plain number.

// concentration lookup, compound = `Nc1cc(C(F)(F)F)c(-c2cc(N3CCOCC3)nc(N3CCOCC3)n2)cn1` , result: 2000
